target: human ether-à-go-go-related gene (hERG) potassium channel (human, UniProt Q12809); experiment: primary screen, population patch clamp on CHO cells stably expressing hERG; higher = less effect of the substance
Sequence (Q12809 whole entry, looked up): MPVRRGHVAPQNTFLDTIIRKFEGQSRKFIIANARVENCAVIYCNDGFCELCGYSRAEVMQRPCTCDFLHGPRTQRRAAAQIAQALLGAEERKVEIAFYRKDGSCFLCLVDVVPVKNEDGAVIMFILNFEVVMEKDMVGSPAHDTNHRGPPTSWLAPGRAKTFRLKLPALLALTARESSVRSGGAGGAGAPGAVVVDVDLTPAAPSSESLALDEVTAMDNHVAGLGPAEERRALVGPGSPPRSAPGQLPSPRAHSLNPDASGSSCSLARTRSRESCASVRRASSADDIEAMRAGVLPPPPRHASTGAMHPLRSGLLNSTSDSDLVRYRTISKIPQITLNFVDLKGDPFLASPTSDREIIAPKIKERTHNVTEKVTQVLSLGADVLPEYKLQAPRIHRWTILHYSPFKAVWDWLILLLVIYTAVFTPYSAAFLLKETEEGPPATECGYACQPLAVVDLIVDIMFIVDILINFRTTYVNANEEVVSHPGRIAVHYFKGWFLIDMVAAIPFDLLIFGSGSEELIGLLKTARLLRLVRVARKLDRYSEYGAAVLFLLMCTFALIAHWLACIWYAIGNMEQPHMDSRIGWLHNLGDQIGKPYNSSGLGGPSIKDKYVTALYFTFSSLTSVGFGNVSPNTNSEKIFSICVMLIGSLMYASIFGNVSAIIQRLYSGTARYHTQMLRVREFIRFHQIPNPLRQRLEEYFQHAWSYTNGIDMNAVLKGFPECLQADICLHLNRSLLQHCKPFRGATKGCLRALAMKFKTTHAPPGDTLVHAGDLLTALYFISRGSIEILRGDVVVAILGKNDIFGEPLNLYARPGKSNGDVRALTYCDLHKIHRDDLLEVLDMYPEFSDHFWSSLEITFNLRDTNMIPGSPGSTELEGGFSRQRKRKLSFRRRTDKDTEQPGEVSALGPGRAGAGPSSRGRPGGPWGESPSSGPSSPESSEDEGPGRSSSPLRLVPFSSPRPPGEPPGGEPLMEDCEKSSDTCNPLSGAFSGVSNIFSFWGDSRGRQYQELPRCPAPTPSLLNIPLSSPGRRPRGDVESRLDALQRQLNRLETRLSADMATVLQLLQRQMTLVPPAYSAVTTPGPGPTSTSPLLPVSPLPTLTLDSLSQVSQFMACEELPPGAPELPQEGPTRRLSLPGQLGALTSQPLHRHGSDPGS
Screen size: about 310,000 compounds; about 2,200 (0.71%) showed an effect of 50% or more. Effects have a minus sign here. Shown is part of a subset that was picked to be rich in strong results.
reported_endpoint: hERG current change (%, negative = inhibition) at 1uM (%)

[
  {
    "molecule": "CN(C)c1cc(NC(=O)CNC(C)(C)CC(C)(C)C)c2ccccc2n1.O=C(O)C(=O)O",
    "output_unit": "%",
    "readout_value": -7.36
  },
  {
    "molecule": "CCOc1ccc(NC(=O)CN(C)C(=O)CSCc2ccc(C)cc2)cc1OCC",
    "output_unit": "%",
    "readout_value": -1.27
  },
  {
    "molecule": "CC(C)(C)c1ccc(C(=O)NN2C(=O)CSC2=S)cc1",
    "output_unit": "%",
    "readout_value": 12.1
  },
  {
    "molecule": "COC(=O)COC(=O)c1ccc(O)cc1",
    "output_unit": "%",
    "readout_value": -12.9
  },
  {
    "molecule": "O=C(c1ccc(C(F)(F)F)cc1)C1CCCN(Cc2ccncc2)C1 (stereo not shown)",
    "output_unit": "%",
    "readout_value": -7.99
  },
  {
    "molecule": "CN1CCCN(CC(O)COCc2cccs2)CC1 (stereo not shown)",
    "output_unit": "%",
    "readout_value": 5.43
  },
  {
    "molecule": "O=C(c1cccc(C(F)(F)F)c1)C1CCCN(Cc2ncc[nH]2)C1 (stereo not shown)",
    "output_unit": "%",
    "readout_value": 11.1
  },
  {
    "molecule": "COc1ccc(CCNC(=O)CN(C2CCCCC2)S(C)(=O)=O)cc1",
    "output_unit": "%",
    "readout_value": 4.21
  },
  {
    "molecule": "CCC(C)[C@H](NC(=O)[C@@H]1CSC2c3ccccc3C(=O)N21)C(=O)N1CCCCC1 (stereo partly shown)",
    "output_unit": "%",
    "readout_value": 8.7
  },
  {
    "molecule": "Cc1ccc(/C=N\\NC(=O)CCc2n[nH]c(=O)[nH]c2=O)o1",
    "output_unit": "%",
    "readout_value": 10.9
  },
  {
    "molecule": "O=C(NCCC1CCCCN1S(=O)(=O)c1ccc(F)cc1)C(=O)Nc1ccccc1 (stereo not shown)",
    "output_unit": "%",
    "readout_value": 7.03
  },
  {
    "molecule": "CCOc1ccccc1CN1CCN(Cc2ccc3cc(F)ccc3n2)CC1CCO (stereo not shown)",
    "output_unit": "%",
    "readout_value": -44.1
  },
  {
    "molecule": "O=C(c1cccc(C(F)(F)F)c1)C1CCCN(Cc2ccccc2O)C1 (stereo not shown)",
    "output_unit": "%",
    "readout_value": 13.2
  },
  {
    "molecule": "CCOCCCNC(=O)c1cn(C)c(=O)c2cc(OC)c(OC)cc12",
    "output_unit": "%",
    "readout_value": 9.51
  },
  {
    "molecule": "COc1ccc(OCC(=O)NNC(=O)C(=O)Nc2cc(OC)ccc2OC)cc1",
    "output_unit": "%",
    "readout_value": 13.5
  },
  {
    "molecule": "COc1cc(OC)c(CN2CCC(CO)(CCOc3ccccc3)CC2)c(OC)c1",
    "output_unit": "%",
    "readout_value": -87.7
  },
  {
    "molecule": "O=C(c1ccc(C(F)(F)F)cc1)C1CCCN(Cc2cccn2-c2ncccn2)C1 (stereo not shown)",
    "output_unit": "%",
    "readout_value": -88
  },
  {
    "molecule": "CCOc1ccccc1N1CCN(CC(O)COCc2cccs2)CC1 (stereo not shown)",
    "output_unit": "%",
    "readout_value": -1.54
  },
  {
    "molecule": "COc1ccccc1N1CCN(CC(O)COCc2cccs2)CC1.Cl (stereo not shown)",
    "output_unit": "%",
    "readout_value": 0.795
  },
  {
    "molecule": "Cc1cccc(CN2CCCC(C(=O)c3ccc(C(F)(F)F)cc3)C2)n1 (stereo not shown)",
    "output_unit": "%",
    "readout_value": -40
  },
  {
    "molecule": "Cc1cccc(N2CCN(CC(O)COCc3cccs3)CC2)c1C (stereo not shown)",
    "output_unit": "%",
    "readout_value": -63.9
  },
  {
    "molecule": "O=C(c1cccc(C(F)(F)F)c1)C1CCCN(Cc2cccn2-c2ccccn2)C1 (stereo not shown)",
    "output_unit": "%",
    "readout_value": -90.4
  },
  {
    "molecule": "CCOc1ccc(CN2CCN(Cc3ccc4cc(F)ccc4n3)CC2CCO)cc1 (stereo not shown)",
    "output_unit": "%",
    "readout_value": -79.3
  },
  {
    "molecule": "O=C(Nc1c(-c2ccc(F)cc2)nc2ccccn12)c1ccc(F)cc1",
    "output_unit": "%",
    "readout_value": -4.64
  },
  {
    "molecule": "COc1ccc(CN2CCC(CO)(CCOc3ccccc3)CC2)c(OC)c1C",
    "output_unit": "%",
    "readout_value": -81.6
  },
  {
    "molecule": "CCOC(=O)Cn1ncc2c3ccccc3n(CC(=O)OCC)c2c1=O",
    "output_unit": "%",
    "readout_value": 13.4
  },
  {
    "molecule": "Cc1nn(C)c(Cl)c1CN1CCC(CO)(CCOc2ccccc2)CC1",
    "output_unit": "%",
    "readout_value": -12.9
  },
  {
    "molecule": "COc1cc(Cl)c(CN2CCCC(CO)(Cc3ccccc3)C2)cc1OC (stereo not shown)",
    "output_unit": "%",
    "readout_value": -2.72
  },
  {
    "molecule": "CCOC(=O)C1(CCc2ccccc2)CCN(Cc2ccc(C(=O)OC)cc2)CC1",
    "output_unit": "%",
    "readout_value": -86.1
  },
  {
    "molecule": "S=C(NN=C1C2CC3CC(C2)CC1C3)Nc1ccccc1",
    "output_unit": "%",
    "readout_value": 11.9
  },
  {
    "molecule": "CCOC(=O)C1(CCOC)CCN(Cc2ccc(C(=O)OC)cc2)CC1",
    "output_unit": "%",
    "readout_value": 0.201
  }
]

---

target: human ether-à-go-go-related gene (hERG) potassium channel (human, UniProt Q12809); assay: primary screen, population patch clamp on CHO cells stably expressing hERG; higher = less effect of the substance
Screen size: about 310,000 compounds; about 2,200 (0.71%) showed an effect of 50% or more. Effects have a minus sign here. The full list was thinned out, with strong results kept by preference.
reported_endpoint: hERG current change (%, negative = inhibition) at 1uM (%)

[
  {
    "molecule": "O=C(C[n+]1ccc(C(=O)N/N=C/c2ccc(Cl)cc2Cl)cc1)c1ccccc1.[Br-]",
    "readout_value": -63.3
  },
  {
    "molecule": "O=C(N/N=C/c1ccc(OC2CSC2)cc1)c1ccccc1",
    "readout_value": -0.636
  },
  {
    "molecule": "O=C(O)C(Oc1ccc2c(-c3ccccc3)cc(=O)oc2c1)c1ccccc1 (stereo not shown)",
    "readout_value": 9.07
  },
  {
    "molecule": "COc1ccc(C(C)=O)cc1CN1C(=O)NC2(CCCCCCC2)C1=O",
    "readout_value": 19.8
  },
  {
    "molecule": "O=C(NCCO)/C(=C\\c1ccc(Br)cc1)NC(=O)c1cccs1",
    "readout_value": 6.96
  },
  {
    "molecule": "COc1cccc(C(=O)N/N=C/c2ccc(OC3CSC3)cc2)c1",
    "readout_value": 12.7
  },
  {
    "molecule": "OCC1(Cc2ccccc2)CCN(Cc2ccc(C(F)(F)F)cc2)CC1",
    "readout_value": -6.85
  }
]

---

biological target: human ether-à-go-go-related gene (hERG) potassium channel (human, UniProt Q12809); test: primary screen, population patch clamp on CHO cells stably expressing hERG; higher = less effect of the substance
Among all 310,000 compounds or so, about 2,200 (0.71%) showed an effect of 50% or more. Effects have a minus sign here. The list comes from a sample in which strong results are over-represented; it also holds close analogues and randomly drawn compounds.
reported_endpoint: hERG current change (%, negative = inhibition) at 1uM (%)

[
  {
    "compound": "CCOC(=O)N1CCC(N2CCCC(C(=O)c3cccc(OC(C)C)c3)C2)CC1 (stereo not drawn)",
    "system_name": "human ether-à-go-go-related gene (hERG) potassium channel (human, UniProt Q12809)",
    "readout_value": -61.3
  },
  {
    "compound": "CCOC(=O)c1ccc(NC(=S)N(CCN2CCCCCC2)Cc2ccco2)cc1",
    "system_name": "human ether-à-go-go-related gene (hERG) potassium channel (human, UniProt Q12809)",
    "readout_value": -87.2
  },
  {
    "compound": "COc1ccc(N2C(=O)C(OC(C)=O)C2c2ccc(C)cc2)cc1 (stereo not drawn)",
    "system_name": "human ether-à-go-go-related gene (hERG) potassium channel (human, UniProt Q12809)",
    "readout_value": 7.38
  },
  {
    "compound": "Cc1ccc(S(=O)(=O)N2CCOCC2)cc1C(=O)N1CCC(Cc2ccccc2)CC1",
    "system_name": "human ether-à-go-go-related gene (hERG) potassium channel (human, UniProt Q12809)",
    "readout_value": 11.2
  },
  {
    "compound": "CCCCn1c(SCC(=O)NC2CCCC2)nc2ccccc2c1=O",
    "system_name": "human ether-à-go-go-related gene (hERG) potassium channel (human, UniProt Q12809)",
    "readout_value": 4.94
  },
  {
    "compound": "CCOC(=O)N1CCC(N2CCCC(C(=O)c3cccc(OC)c3)C2)CC1 (stereo not drawn)",
    "system_name": "human ether-à-go-go-related gene (hERG) potassium channel (human, UniProt Q12809)",
    "readout_value": -13.2
  },
  {
    "compound": "COc1cc(OC)cc(C(=O)N[C@H](C(=O)OCC(=O)NC(=O)c2cccn2C)C(C)C)c1",
    "system_name": "human ether-à-go-go-related gene (hERG) potassium channel (human, UniProt Q12809)",
    "readout_value": 6.95
  },
  {
    "compound": "CN(c1ccc(C(=O)NCCSCc2ccc(Cl)cc2)cc1)S(=O)(=O)c1ccccc1",
    "system_name": "human ether-à-go-go-related gene (hERG) potassium channel (human, UniProt Q12809)",
    "readout_value": 14.1
  },
  {
    "compound": "Cc1ccc(CS(=O)(=O)c2ncn[nH]2)cc1",
    "system_name": "human ether-à-go-go-related gene (hERG) potassium channel (human, UniProt Q12809)",
    "readout_value": 21
  },
  {
    "compound": "CCOc1ccc(NC(=O)CC2C(=O)N(c3cccc(OC)c3)C(=O)N2CCOC)cc1 (stereo not drawn)",
    "system_name": "human ether-à-go-go-related gene (hERG) potassium channel (human, UniProt Q12809)",
    "readout_value": 3.67
  },
  {
    "compound": "COc1ccc2c(c1)sc(N)[n+]2Cc1cc(C)cc2cccnc12.[Br-]",
    "system_name": "human ether-à-go-go-related gene (hERG) potassium channel (human, UniProt Q12809)",
    "readout_value": -26.5
  },
  {
    "compound": "CCCn1c(SCC(=O)Nc2ccccc2OC)nnc1-c1ccco1",
    "system_name": "human ether-à-go-go-related gene (hERG) potassium channel (human, UniProt Q12809)",
    "readout_value": -18.2
  },
  {
    "compound": "O=c1[nH]c(CN2CC=C(c3ccccc3)CC2)nc2scc(-c3cccs3)c12",
    "system_name": "human ether-à-go-go-related gene (hERG) potassium channel (human, UniProt Q12809)",
    "readout_value": 14.1
  },
  {
    "compound": "COc1ccc2c(c1)Sc1ccccc1N2CCN(C)C.O=C(O)C(=O)O",
    "system_name": "human ether-à-go-go-related gene (hERG) potassium channel (human, UniProt Q12809)",
    "readout_value": 2.44
  },
  {
    "compound": "COc1ccc([C@@H]2Sc3cc(OC)ccc3N(CCN(C(C)C)C(C)C)C(=O)[C@H]2OC(C)=O)cc1.Cl",
    "system_name": "human ether-à-go-go-related gene (hERG) potassium channel (human, UniProt Q12809)",
    "readout_value": -70
  },
  {
    "compound": "COc1ccc(CN2CCNC(=O)C2CC(=O)N(C)Cc2nccs2)c(OC)c1 (stereo not drawn)",
    "system_name": "human ether-à-go-go-related gene (hERG) potassium channel (human, UniProt Q12809)",
    "readout_value": 13.1
  },
  {
    "compound": "C/C(=N/OCO/N=C(\\C)c1ccc(F)cc1F)c1ccc(F)cc1F",
    "system_name": "human ether-à-go-go-related gene (hERG) potassium channel (human, UniProt Q12809)",
    "readout_value": 21.9
  },
  {
    "compound": "COc1ccc(NC(=O)CSc2nc3ccccc3c(=O)n2CCCN2CCCCC2)c(OC)c1",
    "system_name": "human ether-à-go-go-related gene (hERG) potassium channel (human, UniProt Q12809)",
    "readout_value": -27.7
  },
  {
    "compound": "CC(C)(C)S(=O)(=O)c1cnc2c(-c3ccsc3)cnn2c1N",
    "system_name": "human ether-à-go-go-related gene (hERG) potassium channel (human, UniProt Q12809)",
    "readout_value": 15.9
  },
  {
    "compound": "CCc1ccc(NC(=S)N(CCN2CCCCC2)Cc2ccco2)cc1",
    "system_name": "human ether-à-go-go-related gene (hERG) potassium channel (human, UniProt Q12809)",
    "readout_value": -34.7
  },
  {
    "compound": "CCOC(=O)c1ccc(NC(=S)N(CCCN2CCCCCC2)Cc2ccco2)cc1",
    "system_name": "human ether-à-go-go-related gene (hERG) potassium channel (human, UniProt Q12809)",
    "readout_value": -31.7
  }
]
